- method: molar heat capacity at constant pressure
- recorded.conditions: 229.15 K; 101.33 kPa; Crystal; Small sample (50 mg) DSC
measure.name: molar heat capacity at constant pressure (J/K/mol)

{"columns": ["compound", "molar heat capacity at constant pressure / J/K/mol"],
 "data": [
  ["OC[C@H](O)C(O)[C@@H](O)CO [L-(-)-arabitol]", 159.08],
  ["O[C@H]1[C@H](O)[C@@H](O)[C@H](O)[C@@H](O)[C@H]1O [cis-1,2,3,5-trans-4,6-cyclohexanehexol]", 165.48],
  ["OC[C@@H](O)[C@H](O)[C@@H](O)CO", 160.62],
  ["OC[C@@H](O)[C@@H](O)[C@H](O)[C@H](O)CO", 179.32],
  ["OC[C@@H](O)C(O)[C@H](O)CO", 154.52],
  ["OC[C@@H](O)[C@@H](O)CO", 128.26]
]}

----------
- method: molar heat capacity at constant pressure
- recorded.conditions: 260 K; 101.33 kPa; Crystal; relaxation calorimetry
measure.name: molar heat capacity at constant pressure (J/K/mol)

{"columns": ["compound", "reading"],
 "data": [
  ["OC[C@@H](O)[C@@H](O)CO", 145.33],
  ["OC[C@@H](O)C(O)[C@H](O)CO", 176.9],
  ["O[C@H]1[C@H](O)[C@@H](O)[C@H](O)[C@@H](O)[C@H]1O [cis-1,2,3,5-trans-4,6-cyclohexanehexol]", 189.3],
  ["OC[C@H](O)C(O)[C@@H](O)CO [L-(-)-arabitol]", 179.82],
  ["OC[C@@H](O)[C@H](O)[C@@H](O)CO", 180.7],
  ["OC[C@@H](O)[C@@H](O)[C@H](O)[C@H](O)CO", 202.45]
]}

----------
- method: molar heat capacity at constant pressure
- recorded.conditions: 418.15 K; 101.33 kPa; Liquid; Small sample (50 mg) DSC
measure.name: molar heat capacity at constant pressure (J/K/mol)

{"columns": ["compound", "molar heat capacity at constant pressure (J/K/mol)"],
 "data": [
  ["OC[C@H](O)C(O)[C@@H](O)CO [L-(-)-arabitol]", 453.6],
  ["OC[C@@H](O)[C@H](O)[C@@H](O)CO", 444.54],
  ["OC[C@@H](O)[C@@H](O)CO", 354.67],
  ["OC[C@@H](O)C(O)[C@H](O)CO", 454.54]
]}

----------
- method: molar heat capacity at constant pressure
- recorded.conditions: 60 K; 101.33 kPa; Crystal; relaxation calorimetry
measure.name: molar heat capacity at constant pressure (J/K/mol)

{"columns": ["compound", "reading"],
 "data": [
  ["O[C@H]1[C@H](O)[C@@H](O)[C@H](O)[C@@H](O)[C@H]1O [cis-1,2,3,5-trans-4,6-cyclohexanehexol]", 39.12],
  ["OC[C@H](O)C(O)[C@@H](O)CO [L-(-)-arabitol]", 45.6],
  ["OC[C@@H](O)C(O)[C@H](O)CO [D-arabitol]", 45.36],
  ["OC[C@@H](O)[C@H](O)[C@@H](O)CO [xylitol]", 42.76],
  ["OC[C@@H](O)[C@@H](O)CO [meso-1,2,3,4-butanetetrol]", 37.94],
  ["OC[C@@H](O)[C@@H](O)[C@H](O)[C@H](O)CO [D-mannitol]", 51.67]
]}

Hello, the source for this data is the NIST ThermoML archive (doi:10.1016/j.jct.2017.08.004), in case you need it.
